Values from patent US11873320B2

system: RANKL-induced TRAP activity and formation of osteoclasts; assay: RANKL-induced osteoclastogenesis in RAW264.7; assay type: cell-based; settings: Mus musculus, Osteoclast; 2 h pretreatment, 50 ng/mL RANKL

compound	IC50
CC1(C)CC[C@]2(NC(=O)C(C)(F)F)CC[C@]3(C)[C@H](C(=O)C=C4[C@@]5(C)C=C(C#N)C(=O)C(C)(C)[C@@H]5CC[C@]43C)[C@@H]2C1 [RTA 408]	5 to 10 nM

====

system: glutathione levels; assay: induction of glutathione levels, RAW264.7 mouse model; format: cell-based
Listing of entries alongside the reported EC50.
readout name: EC50 (nM)

smi	tested target	reported measurement
CCC(=O)N[C@]12CCC(C)(C)C[C@H]1[C@H]1C(=O)C=C3[C@@]4(C)C=C(C#N)C(=O)C(C)(C)[C@@H]4CC[C@@]3(C)[C@]1(C)CC2	glutathione levels	16
CC(=O)N[C@]12CCC(C)(C)C[C@H]1[C@H]1C(=O)C=C3[C@@]4(C)C=C(C#N)C(=O)C(C)(C)[C@@H]4CC[C@@]3(C)[C@]1(C)CC2	glutathione levels	12.1
CC1(C)CC[C@]2(NC(=O)C(F)(F)F)CC[C@]3(C)[C@H](C(=O)C=C4[C@@]5(C)C=C(C#N)C(=O)C(C)(C)[C@@H]5CC[C@]43C)[C@@H]2C1	glutathione levels	23.2
CC1(C)CC[C@]2(NC(=O)C(C)(F)F)CC[C@]3(C)[C@H](C(=O)C=C4[C@@]5(C)C=C(C#N)C(=O)C(C)(C)[C@@H]5CC[C@]43C)[C@@H]2C1	glutathione levels	9.9
